Values compiled from the supplement of paper PMC6555819.

Tested on: LXRb homodimer (NR concentration 270 nM)
test description: PBM binding z-score (relative to random genomic background probes); higher = stronger binding; sequences stand for … in GC…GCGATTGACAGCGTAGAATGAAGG
If the reported PBM binding z-score equals or exceeds 0.2, assign satisfied. If not, assign not satisfied.

>>> answer_label("AGAATGAGGTTAAGATCAGGGTAACAGAATACAT")
"not satisfied"
>>> answer_label("CCTGCTAGGTCATGGTCAACTAATCTACAGTATG")
"not satisfied"
>>> answer_label("TCTTGTAGATTAAAGGTTAAGAAAGCCGAAGCCT")
"not satisfied"
>>> answer_label("CCAGACAGGGGAAAGGTAACTCAGTCTGGTACGC")
"not satisfied"
>>> answer_label("TCTTGTAGACCAACAGGAGGTTAAGAAAGATCGA")
"not satisfied"
>>> answer_label("CCTTACGGGTCACTCCAGGTTATCGCATCGGAGT")
"satisfied"
>>> answer_label("GGAACGAGGGCAATGTTGATAGCATCTGTCGACG")
"not satisfied"
>>> answer_label("CCTACTGGGCCACGAAAGGTCATCGATTCAGTGA")
"not satisfied"
>>> answer_label("TTACCTAGGTGAAAGGTCGTTGATGCACGCCTTG")
"not satisfied"
>>> answer_label("CCGACTGGGGCAGAAAGGTTACGATACCATCCGG")
"not satisfied"
>>> answer_label("ATCTCTAGGTAACCAAGTTCAGTGTATGCCGAAC")
"satisfied"
>>> answer_label("TTACCAAGGTGAAAGGTCGTTGATGCACGCCTTG")
"not satisfied"
>>> answer_label("TCTTGTAGATCAAAGGTTAATAAAGCCGAAGCCT")
"not satisfied"
>>> answer_label("AATACCGGGTCATCGTAGGCCAGAGTACGCACAG")
"satisfied"
>>> answer_label("TCTATTAGGTGAAGGGCAACCGACGAGTCCGTTT")
"satisfied"
>>> answer_label("ACTTACGGGTCAACGAGGTTTTAGCACGCGTATA")
"satisfied"
>>> answer_label("ATCTCTAGGTAAGACTGAGTTCAGTGAAGAACGC")
"satisfied"

====

Tested on: PPARg:RXRa IVT, anti-PPARg (NR concentration 270 nM, RXRa partner concentration 90 nM)
test description: PBM binding z-score (relative to random genomic background probes); higher = stronger binding; sequences stand for … in GC…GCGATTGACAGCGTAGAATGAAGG
If the reported PBM binding z-score equals or exceeds 3, assign yes. If not, assign no.

>>> answer_label("CCGAGTAGGTTATGGGGCATTCATGCAACGGTGA")
"yes"
>>> answer_label("CGTCCAATGTCAAAGGTCAGTGAAGAGATGACGG")
"yes"
>>> answer_label("GATACAGGGTCAGCTAGAGGCAAGAGTATGGAAA")
"no"
>>> answer_label("CCTTACGGGTCACGAGGTTATAGAACGACGAGCG")
"yes"
>>> answer_label("ATCTCGAGGTAAAAGTTCAGTGAATCCCGAGGAT")
"no"
>>> answer_label("CCTTACGGGTCACGGACAGGTTATAGCATTTGGA")
"yes"
>>> answer_label("GGAACGAGGGCAAAGTCGATAGCATCTGTCGACG")
"yes"
>>> answer_label("GGAACGAGGGCTAAGTTGATAGCATCTGTCGACG")
"no"
>>> answer_label("CTCGAAAGGTCGTGCTCAGGTGAGTCTACCAAAC")
"no"
>>> answer_label("CGTCCAAGGTCAGAGAGGTCAATGAATGCCGAGT")
"yes"
>>> answer_label("GCAAGTTGGTCAGTAAAAGGTCACACACCGGTCG")
"no"
>>> answer_label("AACACAGGGTCACTAGGCCAGAGTAGGTACGAAT")
"yes"
>>> answer_label("GTACCAAGGTTAATAGGTCGTTGATGAGTAGGCG")
"yes"
>>> answer_label("CCGATTGGGGCAAAGGTTACCATACTCAGTACGA")
"yes"
>>> answer_label("CGTCAAAGTTCATCTAAGGTAACGTAAAGCACGC")
"no"
>>> answer_label("TCGGGTAGGTTAGTCGGGGCATTCAGCCAACATA")
"no"
>>> answer_label("CCTTTTAGTTGACCATAAGGGCAACCGAAGCTCG")
"no"
>>> answer_label("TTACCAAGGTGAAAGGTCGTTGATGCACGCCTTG")
"yes"
>>> answer_label("AATAGAGGGTCATCGTAGGCCAGAGTACGCACAG")
"yes"
